Reference source for all entries: ChEMBL document CHEMBL1156829

- Tested on: Plasmodium falciparum
- test.description: NOVARTIS: Inhibition of Plasmodium falciparum W2 (drug-resistant) proliferation in erythrocyte-based infection assay
- Format: functional, organism-based
- protocol.conditions: Plasmodium falciparum, W2; read-out: EC50
Binary label based on EC50 with cut-off 300 nM: below gives TRUE, not below gives FALSE.

Worked cases, answers included:
Cc1cccc(CC(=O)N2CCC[C@@H]3CN(C(=O)CCc4cccnc4)CC[C@@H]32)c1 : FALSE
Cc1onc(-c2ccccc2)c1C(=O)N1CCC(CNc2c(-c3ccoc3)nc3ccccn23)CC1 : TRUE
Cc1cc(N2CCCC2)nc2ccc(NC(=S)NCCCN3CCN(Cc4ccccc4)CC3)cc12 : FALSE
O=C(Nc1ccc2oc(-c3cccc4ccccc34)nc2c1)c1ccc([N+](=O)[O-])o1 : FALSE

A record lists O=C(Nc1ccc(-n2cnnn2)cc1)C1CCN(Cc2cc3ccccc3o2)CC1 . Is its EC50 below 300 nM?
FALSE
